Data origin: ChEMBL document CHEMBL3885861

Reported values of APTT for individual entries
Species: Rattus norvegicus
MEASUREMENT_PROTOCOL: Open TG-GATES - Regimen: Single
Format: toxicity, organism-based, Sprague-Dawley
Set-up: regimen Single, gender Male, age 6 weeks
ASSAY_SETUP: in vivo, po, 100 mg/kg, 24 h, tissue Blood, route gavage, dose level High
Supply the numeric figure in s, leaving out any unit text.

Worked examples, 3 compounds total:
Problem: Return APTT (reported value) for this compound: "CN(C)CCCN1c2ccccc2CCc2ccc(Cl)cc21"
Result: 19.3

Problem: Return APTT (reported value) for this compound: "CC1=C(/C=C/C(C)=C/C=C/C(C)=C/CO)C(C)(C)CCC1"
Result: 23.2

Problem: Return APTT (reported value) for this compound: "CN(C)CCN(Cc1cccs1)c1ccccn1"
Result: 20.8

Let us move to another entry and its APTT.
Problem: Return APTT (reported value) for this compound: "CN(C)CCCN1c2ccccc2CCc2ccccc21"
Result: 16

###

Reported values of BUN for individual entries
Species on record: Rattus norvegicus
MEASUREMENT_PROTOCOL: Open TG-GATES - Regimen: Daily Repeat
Assay type: toxicity, organism-based, Sprague-Dawley
Design: regimen Daily Repeat, gender Male, age 6 weeks
ASSAY_SETUP: in vivo, po, 100 mg/kg, […], tissue Plasma, route gavage, dose level Low, time 14 day
Supply the numeric figure in mg/dL, leaving out any unit text.

Worked examples, 4 compounds total:
Problem: Return BUN (reported value) for this compound: COc1ccc2[nH]c([S+]([O-])Cc3ncc(C)c(OC)c3C)nc2c1 (stereo not given)
Result: 15.8

Problem: Return BUN (reported value) for this compound: CCOc1ccc(NC(=O)CC(C)O)cc1 (stereo not given)
Result: 14.6

Problem: Return BUN (reported value) for this compound: "NC(N)=Nc1nc(CSCCC(N)=NS(N)(=O)=O)cs1"
Result: 15.2

Problem: Return BUN (reported value) for this compound: "COC1=CC(=O)C[C@@H](C)[C@]12Oc1c(Cl)c(OC)cc(OC)c1C2=O"
Result: 15.2

Let us move to another entry and its BUN.
Problem: Return BUN (reported value) for this compound: CCOC(=O)CCC(=O)O[C@H]1[C@H](O[C@@H]2[C@@H](C)[C@H](O[C@H]3C[C@@](C)(OC)[C@@H](O)[C@H](C)O3)[C@@H](C)C(=O)O[C@H](CC)[C@@](C)(O)[C@H](O)[C@@H](C)C(=O)[C@H](C)C[C@@]2(C)O)O[C@H](C)C[C@@H]1N(C)C [ERYTHROMYCIN ETHYLSUCCINATE]
Result: 20.2

###

Reported values of KIDNEY_TOTAL for individual entries
Species on record: Rattus norvegicus
MEASUREMENT_PROTOCOL: Open TG-GATES - Regimen: Single
Format: toxicity, organism-based, Sprague-Dawley
Parameters: regimen Single, gender Male, age 6 weeks
ASSAY_SETUP: in vivo, po, 1000 mg/kg, 24 h, tissue Kidney, route gavage, dose level High
Supply the numeric figure in g, leaving out any unit text.

Problem: Return KIDNEY_TOTAL (reported value) for this molecule: COC1=CC(=O)C[C@@H](C)[C@]12Oc1c(Cl)c(OC)cc(OC)c1C2=O [GRISEOFULVIN]
Result: 2

Problem: Return KIDNEY_TOTAL (reported value) for this molecule: COc1ccc2[nH]c([S+]([O-])Cc3ncc(C)c(OC)c3C)nc2c1 (stereo not given) [OMEPRAZOLE]
Result: 2.1

---
Problem: Return KIDNEY_TOTAL (reported value) for this molecule: CCOC(=O)CCC(=O)O[C@H]1[C@H](O[C@@H]2[C@@H](C)[C@H](O[C@H]3C[C@@](C)(OC)[C@@H](O)[C@H](C)O3)[C@@H](C)C(=O)O[C@H](CC)[C@@](C)(O)[C@H](O)[C@@H](C)C(=O)[C@H](C)C[C@@]2(C)O)O[C@H](C)C[C@@H]1N(C)C [ERYTHROMYCIN ETHYLSUCCINATE]
Result: 2

Problem: Return KIDNEY_TOTAL (reported value) for this molecule: CC(C)OC(=O)C(C)(C)Oc1ccc(C(=O)c2ccc(Cl)cc2)cc1 [FENOFIBRATE]
Result: 1.7

Problem: Return KIDNEY_TOTAL (reported value) for this molecule: NC(N)=Nc1nc(CSCCC(N)=NS(N)(=O)=O)cs1 [FAMOTIDINE]
Result: 2.1
